Entry source: patent US20230242675A1

# targetEntity: human PD-L1/His fusion protein (human, UniProt Q9NZQ7 19-239)
# Sequence (Q9NZQ7 19-239 limits assumed): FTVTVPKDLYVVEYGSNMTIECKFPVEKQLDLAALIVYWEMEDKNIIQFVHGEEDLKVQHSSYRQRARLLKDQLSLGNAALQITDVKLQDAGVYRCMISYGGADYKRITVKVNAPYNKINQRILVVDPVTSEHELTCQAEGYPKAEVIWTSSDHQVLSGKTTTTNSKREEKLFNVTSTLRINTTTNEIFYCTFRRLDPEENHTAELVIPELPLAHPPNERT
# procedureSummary: BLI Octet RED96, antibody on AHC sensor, single conc. PD-L1/His; test group 1
propertyLabel: koff (s⁻¹)
Just the number please, in s⁻¹, no unit attached.

Some solved cases for reference:
binder	propertyLabel	resultUnits	observedResult
EM0005-mAb87c (antibody, human IgG1, kappa, V domains shown, Chimeric full-length IgG1; also called EM0005-87c) VH: EVQLQQSGPELVKPGASVKISCKASGYSFTDYYINWVKQSPEKSLEWIGETIPNTGGTTYNQKFKAKATLTVDKSSSTAYMQLKSLTSEDSAVYYCARYQSGSPFAYWGQGTPVTVSS VL: DIVMTQSQKFMSTTVGDRVSITCKASQNVGTAVAWYQQKPGQSPKLLIYSASNRYTGVPDRFTGSGSGTDFTLTISNMQSEDLADYFCQQHYSTPYTFGGGTKLEIKR	koff	s⁻¹	0.00147
HuEM0005-90-5 (antibody, human IgG1, V domains shown) VH: EVQLVQSGAEVKKPGASVKVSCKASGYTFTSHSINWVRQATGQGLEWMGYMYIGNGYTEYNEKFKGRVTLTSNTSISTAYMELSSLRSEDTAVYYCAKITPVVAPYVMDYWGQGTSVTVSS VL: DIQMTQSPSFLSASVGDRVTITCKASQDVGTAVAWYQQKPGKAPKLLIYWASTRHTGVPSRFSGSGSGTEFTLTISSLQPEDFATYYCQQYSSYPYTFGQGTKLEIK	koff	s⁻¹	0.00027
HuEM0005-90-1 (antibody, human IgG1, V domains shown, measured without the G55A change) VH: EVQLVQSGAEVKKPGASVKVSCKASGYTFTSHSINWVRQATGQGLEWMGYMYIGNGYTEYNEKFKGRVTLTSNTSISTAYMELSSLRSEDTAVYYCAKITPVVAPYVMDYWGQGTSVTVSS VL: DIQLTQSPSFLSASVGDRVTITCKASQDVGTAVAWYQQKPGKAPKLLIYWASTRHTGVPSRFSGSGSGTEFTLTISSLQPEDFATYYCQQYSSYPYTFGQGTKLEIK	koff	s⁻¹	0.000259
HuEM0005-87-3 (antibody, human IgG1, V domains shown) VH: EVQLVQSGAEVKKPGASVKVSCKASGYTFTDYYINWVRQAPGQGLEWIGETIPNTGGTTYNQKFKARVTLTVDKSTSTVYMELSSLRSEDTAVYYCARYQSGSPFAYWGQGTTVTVSS VL: DIVMTQSPDSLAVSLGERATINCKASQNVGTAVAWYQQKPGQPPKLLIYSASNRYTGVPDRFTGSGSGTDFTLTISSLQAEDVAVYYCQQHYSTPYTFGGGTKLEIK	koff	s⁻¹	0.000926

API: the following record is the query input.
So what's the measured koff for this one? HuEM0005-90-4 (antibody, human IgG1, V domains shown) VH: EVQLVQSGAEVKKPGASVKVSCKTSGYTFTSHSINWVRQATGQGLEWIGYMYIGNGYTEYNEKFKGRATLTSNTSISTAYMELSSLRSEDTAVYYCAKITPVVAPYVMDYWGQGTSVTVSS VL: DIQLTQSPSFLSASVGDRVTITCKASQDVGTAVAWYQQKPGKAPKLLIYWASTRHTGVPSRFSGSGSGTEFTLTISSLQPEDFATYYCQQYSSYPYTFGQGTKLEIK
0.000246
